# Test system: Trypanosoma brucei gambiense
# ASSAY_EXPLANATION: Antitrypanosomal activity against bloodstream form of Trypanosoma brucei gambiense Feo assessed as parasite growth inhibition after 72 hrs by resazurin-based fluorescence assay
# Type: functional, organism-based
Listing: IC50 of selected compounds
I only need the number, in µM, no unit after it.

# count of solved cases: 3
COc1ccc(C2CC(c3ccc4ccccc4c3)=NN2C2SC(=O)NC2=O)cc1 (centres undefined); 6.66
N=C(N)c1ccc(OCCCCCOc2ccc(C(=N)N)cc2)cc1 [PENTAMIDINE]; 0.0053
COc1ccc(NC(=O)CN2C(=O)SC(N3N=C(c4ccc5ccccc5c4)CC3c3ccc(Cl)cc3)C2=O)cc1 (centres undefined); 6.1

Now for a further compound.
Which IC50 is reported with Trypanosoma brucei gambiense for this entry: Cc1ccc(NC(=O)CN2C(=O)SC(N3N=C(c4ccc5ccccc5c4)CC3c3ccc(Cl)cc3)C2=O)cc1 (centres undefined) ?
2.53

----------
# System: MDCK
# ASSAY_EXPLANATION: Cytotoxicity against MDCK cells
# Assay type: cell-based, Canis lupus familiaris
# PARTICULARS: dog, mdck
REPORTED_METRIC: CC50

# count of solved cases: 5
Cc1ccc(NC(=O)CN2C(=O)SC(N3N=C(c4ccc5ccccc5c4)CC3c3ccc(Cl)cc3)C2=O)cc1 (stereo unspecified); > 13.3 µM
COc1ccc(C2CC(c3ccc4ccccc4c3)=NN2C2SC(=O)NC2=O)cc1 (stereo unspecified); 6.23 µM
CCN1CCN(CN2C(=O)SC(N3N=C(c4ccc5ccccc5c4)CC3c3ccc(Cl)cc3)C2=O)CC1 (stereo unspecified); 2.37 µM
COc1ccc(NC(=O)CN2C(=O)SC(N3N=C(c4ccc5ccccc5c4)CC3c3ccc(Cl)cc3)C2=O)cc1 (stereo unspecified); > 25.6 µM
COc1ccc(C2CC(c3ccc4ccccc4c3)=NN2C2SC(=O)N(CN3CCN(Cc4ccccc4)CC3)C2=O)cc1 (stereo unspecified); 6.6 µM

Now for a further compound.
Please look up its CC50: COc1ccc(C2CC(c3ccc4ccccc4c3)=NN2C2SC(=O)N(CC(=O)Nc3ccc(C)cc3)C2=O)cc1 (stereo unspecified)
> 74.4 µM

----------
# Test system: Influenza A virus
# ASSAY_EXPLANATION: Antiviral activity against Influenza A virus (A/California/07/2009(H1N1)) infected in MDCK cells assessed as inhibition of virus-induced cytopathic effect by cell-based neutral red uptake assay
# Type: functional, organism-based
Listing: EC50 of selected molecules
I only need the number, in µM, no unit after it.

# count of solved cases: 4
COc1ccc(C2CC(c3ccc4ccccc4c3)=NN2C2SC(=O)NC2=O)cc1 (stereo not drawn); 9.82
COc1ccc(C2CC(c3ccc4ccccc4c3)=NN2C2SC(=O)N(CN3CCN(Cc4ccccc4)CC3)C2=O)cc1 (stereo not drawn); 13.7
Cc1ccc(NC(=O)CN2C(=O)SC(N3N=C(c4ccc5ccccc5c4)CC3c3ccc(Cl)cc3)C2=O)cc1 (stereo not drawn); 54.5
CCN1CCN(CN2C(=O)SC(N3N=C(c4ccc5ccccc5c4)CC3c3ccc(Cl)cc3)C2=O)CC1 (stereo not drawn); 4.01

Please look up its EC50: NC(=O)c1ncn([C@@H]2O[C@H](CO)[C@@H](O)[C@H]2O)n1 [RIBAVIRIN]
23.8

Please look up its EC50: COc1ccc(NC(=O)CN2C(=O)SC(N3N=C(c4ccc5ccccc5c4)CC3c3ccc(Cl)cc3)C2=O)cc1 (stereo not drawn)
120

Please look up its EC50: O=C1NC(=O)C(N2N=C(c3ccc4ccccc4c3)CC2c2ccc(Cl)cc2)S1 (stereo not drawn)
4.27

Please look up its EC50: COc1ccc(C2CC(c3ccc4ccccc4c3)=NN2C2SC(=O)N(CC(=O)Nc3ccc(C)cc3)C2=O)cc1 (stereo not drawn)
142

----------
# ASSAY_EXPLANATION: Selectivity index, ratio of CC50 for MDCK cells to EC50 for Influenza A virus (A/Perth/16/2009(H3N2))
# Assay type: toxicity, cell-based
# PARTICULARS: dog, read-out: Ratio CC50/EC50
Listing: selectivity ratio of selected molecules
// return a plain number; no unit text

COc1ccc(C2CC(c3ccc4ccccc4c3)=NN2C2SC(=O)N(CC(=O)Nc3ccc(C)cc3)C2=O)cc1 (centres undefined); 1.4
COc1ccc(C2CC(c3ccc4ccccc4c3)=NN2C2SC(=O)NC2=O)cc1 (centres undefined); 1.4
COc1ccc(NC(=O)CN2C(=O)SC(N3N=C(c4ccc5ccccc5c4)CC3c3ccc(Cl)cc3)C2=O)cc1 (centres undefined); 1.3

Now for a further molecule.
Please look up its selectivity ratio: O=C1NC(=O)C(N2N=C(c3ccc4ccccc4c3)CC2c2ccc(Cl)cc2)S1 (centres undefined)
1

----------
Listing: selectivity ratio of selected compounds
# ASSAY_EXPLANATION: Selectivity index, ratio of CC50 for MDCK cells to EC50 for Influenza A virus (A/California/07/2009(H1N1))
# Type: toxicity, cell-based
# PARTICULARS: dog, read-out: Ratio CC50/EC50
// return a plain number; no unit text

# count of solved cases: 6
O=C1NC(=O)C(N2N=C(c3ccc4ccccc4c3)CC2c2ccc(Cl)cc2)S1 (configuration not stated); 1
Cc1ccc(NC(=O)CN2C(=O)SC(N3N=C(c4ccc5ccccc5c4)CC3c3ccc(Cl)cc3)C2=O)cc1 (configuration not stated); 1.3
CCN1CCN(CN2C(=O)SC(N3N=C(c4ccc5ccccc5c4)CC3c3ccc(Cl)cc3)C2=O)CC1 (configuration not stated); 1.1
COc1ccc(C2CC(c3ccc4ccccc4c3)=NN2C2SC(=O)N(CN3CCN(Cc4ccccc4)CC3)C2=O)cc1 (configuration not stated); 1.1
COc1ccc(C2CC(c3ccc4ccccc4c3)=NN2C2SC(=O)N(CC(=O)Nc3ccc(C)cc3)C2=O)cc1 (configuration not stated); 1.6
COc1ccc(NC(=O)CN2C(=O)SC(N3N=C(c4ccc5ccccc5c4)CC3c3ccc(Cl)cc3)C2=O)cc1 (configuration not stated); 1.5

Now for a further compound.
Please look up its selectivity ratio: COc1ccc(C2CC(c3ccc4ccccc4c3)=NN2C2SC(=O)NC2=O)cc1 (configuration not stated)
1.1

----------
# ASSAY_EXPLANATION: Selectivity index, ratio of CC50 for MDCK cells to EC50 for SARS coronavirus Urbani
# Format: toxicity, cell-based
# PARTICULARS: dog, read-out: Ratio CC50/EC50
REPORTED_METRIC: selectivity ratio

Please look up its selectivity ratio: COc1ccc(C2CC(c3ccc4ccccc4c3)=NN2C2SC(=O)N(CN3CCN(Cc4ccccc4)CC3)C2=O)cc1 (stereo unspecified)
1.6

----------
# System: Influenza A virus
# ASSAY_EXPLANATION: Antiviral activity against Influenza A virus (A/Perth/16/2009(H3N2)) infected in MDCK cells assessed as inhibition of virus-induced cytopathic effect by cell-based neutral red uptake assay
# Assay type: functional, organism-based
REPORTED_METRIC: EC50

COc1ccc(C2CC(c3ccc4ccccc4c3)=NN2C2SC(=O)N(CN3CCN(Cc4ccccc4)CC3)C2=O)cc1 (stereo not drawn); > 6.6 µM
Cc1ccc(NC(=O)CN2C(=O)SC(N3N=C(c4ccc5ccccc5c4)CC3c3ccc(Cl)cc3)C2=O)cc1 (stereo not drawn); > 13.3 µM

Now for a further molecule.
Please look up its EC50: CCN1CCN(CN2C(=O)SC(N3N=C(c4ccc5ccccc5c4)CC3c3ccc(Cl)cc3)C2=O)CC1 (stereo not drawn)
> 2.37 µM
